Biological target: T1, recombinant human interleukin-4 (human, UniProt P05112 25-153)
T1 construct: Recombinant human IL-4 applied in solution over antibody captured by anti-human IgG (BIAcore); also called rhIL-4; human IL-4
T1 sequence (looked up): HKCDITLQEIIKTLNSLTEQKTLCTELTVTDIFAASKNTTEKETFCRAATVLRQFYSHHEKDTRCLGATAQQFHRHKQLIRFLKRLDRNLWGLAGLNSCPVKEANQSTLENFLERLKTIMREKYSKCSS
Assay: SPR (BIAcore 2000), mAb captured on anti-human IgG CM-5 chip, rhIL-4 as analyte
Quick reference for pKd among some binders
Keep it numeric: pKd is minus log10 of the concentration in mol/L.

Example 1 antibody comprising SEQ ID NO:1 and SEQ ID NO:2 (human IL-4 specific monoclonal antibody) (antibody, human IgG1, V domains shown, also called Ex. 1; mAb as defined by CDRs as described in claim 2a)) VH: QVQLVESGGGVVQPGRSLRLSCAASGFTFSSYAMHWVRQAPGKGLEWVTFIWDDGSFKYYAESVKGRFTISRDNSKNTLYLQMNSLRAEDTAVYYCAREGSWSPDIFDIWGQGTMVTVSS VL: AIQLTQSPSSLSASVGDRVTITCRASQGISRALAWYQQKPGKAPKLLIYDASSLESGVPSRFSGSGSGTDFTLTISSLQPEDFATYYCQQFNSYPITFGQGTRLEIKR | 10.37

Now look at this one.
Note pKd for the binder shown: Example 3 antibody comprising SEQ ID NO:17 and SEQ ID NO:18 (antibody, human IgG1, V domains shown, also called Ex. 3) VH: QVQLVESGGGMVQPGRSLRLSCAASGFTLSSYGMHWVRQAPGKGLEWVTVIWYDGNNQYYADSVKGRFTISRDNSKNTLYLQMNSLRAEDTAVYYCAREGSWSPDIFDIWGQGTMVTVSS VL: AIQLTQSPSSLSASVGDRVTITCRASQGISSYLAWYQQKPGKAPKLLIYDASSLESGVPSRFSGSGSGTDFTLTISSLQPEDFATYYCQQFNSYPITFGQGTRLEIKR
10.05
